Data origin, for the record: patent US11044909B2

- Tested on: Cochlodinium Polykrikoides
- assay.protocol: Microalgae-destroying effect by IC50 measurement (cell count)
- Type: cell-based
- study.conditions: Margalefidinium polykrikoides, 24 h; Table 1, 3,4-dichlorobenzylamines; 0.1-5 uM, cultured 1 day; read-out: IC50 Cochlodinium Polykrikoides
- Description: The IC50 value was obtained according to Equation 1: The algicidal activity of each compound was calculated using Equation 2: Algicidal activity (%)=(1−Tt/Ct)×100 <Equation 2> In Equation 2, T (treatment group) and C (control group) represent algae densities in cell counts when each compound was inoculated and was not inoculated, respectively, and t represents the number of days which had passed after the inoculation. […]
Classes by IC50: Low: < 0.4 µM; Medium: ≥ 0.4 µM and < 2 µM; High: ≥ 2 µM

Worked set:
[
  {
    "compound": "Clc1ccc(CNC2CCCCCC2)cc1Cl [Compound 36, Cycloheptyl-(3,4-dichloro-benzyl)-amine]",
    "target.entity": "Cochlodinium Polykrikoides",
    "answer.label": "Low"
  },
  {
    "compound": "CC(C)CCNCc1ccc(Cl)c(Cl)c1 [Compound 7]",
    "target.entity": "Cochlodinium Polykrikoides",
    "answer.label": "Medium"
  },
  {
    "compound": "CCCCNCc1ccc(Cl)c(Cl)c1 [Compound 20, Butyl-(3,4-dichloro-benzyl)-amine]",
    "target.entity": "Cochlodinium Polykrikoides",
    "answer.label": "High"
  },
  {
    "compound": "CN(C)CCCNCc1ccc(Cl)c(Cl)c1 [Compound 8]",
    "target.entity": "Cochlodinium Polykrikoides",
    "answer.label": "Low"
  },
  {
    "compound": "CCN(CC)CCNCc1ccc(Cl)c(Cl)c1 [Compound 1]",
    "target.entity": "Cochlodinium Polykrikoides",
    "answer.label": "High"
  },
  {
    "compound": "Clc1ccc(CNC2CCCCC2)cc1Cl [Compound 35, Cyclohexyl-(3,4-dichloro-benzyl)-amine]",
    "target.entity": "Cochlodinium Polykrikoides",
    "answer.label": "Low"
  },
  {
    "compound": "CN(C)CCNCc1ccc(Cl)c(Cl)c1 [Compound 3]",
    "target.entity": "Cochlodinium Polykrikoides",
    "answer.label": "High"
  },
  {
    "compound": "COC(CCCNCc1ccc(Cl)c(Cl)c1)OC [Compound 6]",
    "target.entity": "Cochlodinium Polykrikoides",
    "answer.label": "High"
  },
  {
    "compound": "Fc1ccc(NCc2ccc(Cl)c(Cl)c2)cc1 [Compound 23]",
    "target.entity": "Cochlodinium Polykrikoides",
    "answer.label": "High"
  },
  {
    "compound": "Clc1ccc(CNCc2ccccc2)cc1Cl [Compound 29, Benzyl-(3,4-dichloro-benzyl)-amine]",
    "target.entity": "Cochlodinium Polykrikoides",
    "answer.label": "High"
  }
]

Each compound maps to one class by IC50. Which class for CCNCc1ccc(Cl)c(Cl)c1 [Compound 17, (3,4-Dichloro-benzyl)-ethyl-amine] ?
High

Which class holds COCCNCc1ccc(Cl)c(Cl)c1 [Compound 5] ?
High

State the class of the compound shown: Clc1ccc(CNC2CCCC2)cc1Cl [Compound 33, Cyclopentyl-(3,4-dichloro-benzyl)-amine]
Low

// return the class label for CCCNCc1ccc(Cl)c(Cl)c1 [Compound 18, (3,4-Dichloro-benzyl)-propyl-amine]
High

Sort into band: Clc1ccc(CNC2CCC2)cc1Cl [Compound 46, Cyclobutyl-(3,4-dichloro-benzyl)-amine]
Medium

Which class holds CCN(CC)CCCNCc1ccc(Cl)c(Cl)c1 [Compound 2] ?
Low

Which category fits this record: Clc1ccc(CNCc2ccccn2)cc1Cl [Compound 26]
High

Class (by measured IC50) for Clc1ccc(CNCCc2cccnc2)cc1Cl [Compound 31]
Medium

Field: class (IC50) — entry: Clc1ccc(CNCCc2ccccc2)cc1Cl [Compound 34, (3,4-Dichloro-benzyl)-phenethyl-amine]
Medium

###

- Test system: Chattonella Marina
- assay.protocol: Microalgae-destroying effect by IC50 measurement (cell count)
- Assay type: cell-based
- study.conditions: 24 h, read-out: IC50 Chattonella Marina
reported.metric: IC50 (nM)
Supply the numeric figure in nM, leaving out any unit text.

Which IC50 value is on record for `Brc1ccccc1CNCCc1ccccn1` ?
1120

###

- Tested on: Cochlodinium Polykrikoides
- assay.protocol: Microalgae-destroying effect by IC50 measurement (cell count)
- Assay type: cell-based
- study.conditions: Margalefidinium polykrikoides, 24 h; Table 1, 3,4-dichlorobenzylamines; 0.1-5 uM, cultured 1 day; read-out: IC50 Cochlodinium Polykrikoides
- Protocol: The IC50 value was obtained according to Equation 1: The algicidal activity of each compound was calculated using Equation 2: Algicidal activity (%)=(1−Tt/Ct)×100 <Equation 2> In Equation 2, T (treatment group) and C (control group) represent algae densities in cell counts when each compound was inoculated and was not inoculated, respectively, and t represents the number of days which had passed after the inoculation. […]
pIC50 reference
pIC50 here is simply -log10 of the concentration when that concentration is written in mol/L.

[
  {
    "compound": "Clc1ccc(CNCCc2ccncc2)cc1Cl [Compound 30]",
    "pIC50": 5.57
  },
  {
    "compound": "Clc1ccc(CNc2ccc(Br)cc2)cc1Cl [Compound 25]",
    "pIC50": 5.40
  },
  {
    "compound": "Clc1ccc(CNC2CCCCCCC2)cc1Cl [Compound 47, Cyclooctyl-(3,4-dichloro-benzyl)-amine]",
    "pIC50": 7.00
  },
  {
    "compound": "Clc1ccc(CNC2CCc3ccccc32)cc1Cl (stereo not drawn) [Compound 45, (3,4-Dichloro-benzyl)-indan-1-yl-amine]",
    "pIC50": 6.51
  }
]

Look at this compound and give its reported pIC50. Clc1ccc(CNCCc2ccccn2)cc1Cl [Compound 32]
6.30

Item under review: Clc1ccc(CNc2ccccc2)cc1Cl [Compound 19, (3,4-Dichloro-benzyl)-phenyl-amine] . Reported pIC50?
5.38

Given the compound Clc1ccc(CNCc2cccnc2)cc1Cl [Compound 27] , what is its reported pIC50?
5.70

# get_value(readout='pIC50', item= Clc1ccc(NCc2ccc(Cl)c(Cl)c2)cc1 [Compound 21] )
5.44
